System: Spodoptera frugiperda
Assay: Spodoptera frugiperda spray test (maize leaf disks)
Type: in vivo
Settings: foliar, 168 h, application rate 100 g/ha, caterpillars, after 7 days, 100% = all caterpillars killed, read-out: efficacy in %

compound	assay system	output unit	pest or weed control at 100 g/ha
CCS(=N)(=O)c1c(-c2nc3cc4c(cc3n2C)OC(F)(F)C(F)(F)O4)nc(-c2ccc(C(F)(F)F)cc2)n1C (stereo not drawn)	Spodoptera frugiperda	%	100
CCS(=O)(=O)c1c(-c2nc3cc4c(cc3n2C)OC(F)(F)C(F)(F)O4)nc(-c2cccc(Br)c2)n1C	Spodoptera frugiperda	%	100
CCS(=O)(=O)c1c(-c2nc3cc4c(cc3n2C)OC(F)(F)C(F)(F)O4)nc(-c2ccc(-c3ccc(Br)cn3)cn2)n1C	Spodoptera frugiperda	%	100

----------
Test system: Nezara viridula
Experiment: Nezara viridula spray test (barley plants)
Format: in vivo
Conditions: 96 h, application rate 500 g/ha, larvae, after 4 days, 100% = all shield bugs killed, read-out: efficacy in %
measured metric: pest or weed control at 500 g/ha (%)

1. CCS(=O)(=O)c1c(-c2nc3cc4c(cc3n2C)OC(F)(F)C(F)(F)O4)nc(-c2ccc(C3(F)CC3)cc2)n1C 100
2. CCS(=O)(=O)c1c(-c2nc3cc4c(cc3n2C)OC(F)(F)C(F)(F)O4)nc(-c2cccc(Cl)n2)n1C 100
3. CCS(=O)(=O)c1c(-c2nc3cc4c(cc3n2C)OC(F)(F)C(F)(F)O4)nc(-c2ccc(Br)cc2)n1C 100
4. CCS(=O)(=O)c1c(-c2nc3cc4c(cc3n2C)OC(F)(F)C(F)(F)O4)nc(-c2ccc(C3(C#N)CC3)cc2)n1C 100
5. CCS(=O)(=O)c1c(-c2nc3cc4c(cc3n2C)OC(F)(F)C(F)(F)O4)nc(-c2cccc(F)c2)n1C 90
6. CCS(=O)(=O)c1c(-c2nc3cc4c(cc3n2C)OC(F)(F)C(F)(F)O4)nc(-c2cccc(C3(F)CC3)c2)n1C 90
7. CCS(=O)(=O)c1c(-c2nc3cc4c(cc3n2C)OC(F)(F)C(F)(F)O4)nc(-c2cccc(C3(C#N)CC3)c2)n1C 90
8. CCS(=O)(=O)c1c(-c2nc3cc4c(cc3n2C)OC(F)(F)C(F)(F)O4)nc(-c2ccc(Cl)s2)n1C 100
9. CCS(=O)(=O)c1c(-c2nc3cc4c(cc3n2C)OC(F)(F)C(F)(F)O4)nc(-c2cccc(C3(C#N)CC3)n2)n1C 100
